Measured values drawn from the supplement of paper PMC9732359 for this set.

# Test summary: protein stability index of a GFP-peptide fusion (yeast GPS) (PSI 1-4); higher = more stable; sorted into four equal gates, so the index is relative within each strain
# Measurement context: pdr5∆
Threshold check on protein stability index: at or above 3 gives Criterion met, strictly below gives Criterion not met.

INSERT INTO results (residue_codes, cat) VALUES
  ('YRVTLESILQMNQGEGE [RPC34]', 'Criterion met'),
  ('TGIFMAMHYSSNIELAF [COB]', 'Criterion not met'),
  ('DFKEVEDFLHFIVAEYI [SRB4]', 'Criterion met'),
  ('VALPPGSNYNPYFPGGS [CYT1]', 'Criterion not met'),
  ('NKSFIVDQGQIYRDRST [ITC1]', 'Criterion met'),
  ('FLGYKAGMTTIVRDLDR [RPL3]', 'Criterion met'),
  ('AAVVKTSSRQTVFLPMV [RPT5]', 'Criterion met'),
  ('ALMRCSFEETVEILFEA [RPO21]', 'Criterion not met'),
  ('KPSFSFGVPNSSKNETS [YLR335W/NUP2]', 'Criterion not met'),
  ('KDEETTEKARLIDFEYV [RRI2]', 'Criterion met'),
  ('HAPAYHRSKKDQDQYLE [IRR1]', 'Criterion met'),
  ('TQEEVELPLEDFKAKYC [RPB5]', 'Criterion met'),
  ('RKWVIFITKHLPLLILE [NUT1]', 'Criterion not met'),
  ('ETTTEEDSENPSDWQRN [ITC1]', 'Criterion met'),
  ('NSIESKNLSLQTGTKPV [COR1]', 'Criterion not met'),
  ('ETSCDNYHPMNIDETSD [SMC4]', 'Criterion met'),
  ('SMLFKTSQKMTSTVNRL [MCD1]', 'Criterion not met'),
  ('TNSSILLGKILPREEHD [RRP6]', 'Criterion not met'),
  ('SDSLGPDTSNEICDLAY [SRB2]', 'Criterion met'),
  ('KRIESLQKDLQRQKTYV [SMC1]', 'Criterion met'),
  ('TLELSAQFRVPRYHSKN [SWP82]', 'Criterion not met'),
  ('GDDEATEIISTLSNGLI [BRR2]', 'Criterion met'),
  ('PSENLLNIRIQTYGETT [RPC19]', 'Criterion not met'),
  ('KPLADLRPLFTRYELYI [YLR335W/NUP2]', 'Criterion not met'),
  ('TYEMRIHKRYIDLEAPV [RPS20]', 'Criterion not met'),
  ('DFTQEDELRKQELISKA [ISW2]', 'Criterion met'),
  ('YDRKKLPRKEVDDVLGG [RPC11]', 'Criterion met'),
  ('DVKSSLSKVFSDVLFEF [YJL039C/NUP192]', 'Criterion met'),
  ('YGILSIDDLIHEIITVG [RPL7A]', 'Criterion not met'),
  ('FSSNLSYANHLEESDVE [YOR098C/NUP1]', 'Criterion not met'),
  ('IRCHREDCDLVIMALML [POP5]', 'Criterion not met'),
  ('RPDGVHVINVGKTWEKL [RPS0A]', 'Criterion met'),
  ('AISQSLRDESLTVDNLS [PRE5]', 'Criterion met'),
  ('RLPHQFRPIEIFTDFLP [RRP42]', 'Criterion not met'),
  ('GEVVYLRKQKDSSTTSS [ITC1]', 'Criterion not met'),
  ('KDQIQAGKWFDPVLDWR [SIR4]', 'Criterion met'),
  ('KASRKSVGLPSKVASSL [ECM29]', 'Criterion not met'),
  ('PMYKELWINYIKELLNI [POP4]', 'Criterion not met'),
  ('VLGTPDQKIWPYLEKYP [SSN3]', 'Criterion not met'),
  ('PEGRLYQVEYAFKATNQ [SCL1]', 'Criterion not met'),
  ('EFDSTDTSLCINGEPSI [RRI1]', 'Criterion met'),
  ('AEYAQLLAKRLSERKAE [RPS6A]', 'Criterion not met'),
  ('LLQGGAKVVVTTSRFSK [FAS2]', 'Criterion not met'),
  ('IINFGEIEQNTELLDEF [RPN10]', 'Criterion met'),
  ('ARTIKATLPYIKQDIPI [RPB2]', 'Criterion not met'),
  ('AYGNWFNGLKPLIQNSM [PRP8]', 'Criterion met'),
  ('VTHMDQIFVRGSQIKFI [SMD3]', 'Criterion not met'),
  ('VVWYQRLTMGNVFTPEI [RRI2]', 'Criterion not met'),
  ('RPEQLSNIIHDESDTIS [SNF6]', 'Criterion not met'),
  ('GHEELKRRIEEEQEKIN [ISW2]', 'Criterion met'),
  ('PKEPRLKSQMDTSKALL [SKI6]', 'Criterion met'),
  ('TFLESINGINWRFHTPQ [SIN4]', 'Criterion not met');
